Target: ROCKII (1-543) (Homo sapiens (Human), UniProt O75116)
Experiment: Luciferin-Luciferase Assay (PKLight ATP detection)
Assay type: biochemical
Details: 750 nM ATP, 500 nM peptide, 7.5 nM kinase
Sequence (O75116 1-543): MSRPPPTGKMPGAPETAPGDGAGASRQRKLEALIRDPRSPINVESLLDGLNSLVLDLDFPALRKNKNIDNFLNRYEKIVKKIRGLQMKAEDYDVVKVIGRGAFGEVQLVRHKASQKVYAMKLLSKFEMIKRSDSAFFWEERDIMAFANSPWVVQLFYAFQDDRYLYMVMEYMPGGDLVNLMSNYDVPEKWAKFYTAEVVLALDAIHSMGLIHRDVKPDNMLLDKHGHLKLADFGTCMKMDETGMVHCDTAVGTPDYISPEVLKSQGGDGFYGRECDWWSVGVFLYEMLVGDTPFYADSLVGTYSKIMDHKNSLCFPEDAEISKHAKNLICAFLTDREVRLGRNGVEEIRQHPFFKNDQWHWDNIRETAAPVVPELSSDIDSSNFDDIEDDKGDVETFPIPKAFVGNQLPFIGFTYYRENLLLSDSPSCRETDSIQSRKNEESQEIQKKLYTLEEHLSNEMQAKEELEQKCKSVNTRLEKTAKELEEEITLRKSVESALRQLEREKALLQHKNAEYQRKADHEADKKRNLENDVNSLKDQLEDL
pIC50: −log10 of the molar value.
Would you please tag the item satisfied when its pIC50 is 8 or above, and not satisfied when it is below?

Before answering, review these 5 worked examples.
[
  {
    "MOLECULE": "N#Cc1cccc2c1CCN2C(=O)N1CCC[C@@H]1c1cccc(C(=O)Nc2nc3c(s2)C[C@@H](N2CCOCC2)CC3)c1",
    "CLASS ASSIGNMENT": "satisfied"
  },
  {
    "MOLECULE": "CN(C)[C@H]1CCc2nc(NC(=O)c3cccc([C@H]4CCCN4C(=O)c4ccc5[nH]c(=O)ccc5c4)c3)sc2C1",
    "CLASS ASSIGNMENT": "satisfied"
  },
  {
    "MOLECULE": "CN1CCc2nc(NC(=O)c3cccc(C4CCCN4C(=O)Nc4ccc(C#N)cc4)c3)sc2C1 (centres unmarked)",
    "CLASS ASSIGNMENT": "not satisfied"
  },
  {
    "MOLECULE": "CCCC[C@@H](NC(=O)c1ccc(OC)c(Cl)c1)c1cccc(C(=O)Nc2nc3c(s2)CN(C)CC3)c1",
    "CLASS ASSIGNMENT": "not satisfied"
  },
  {
    "MOLECULE": "CN1CCc2nc(NC(=O)c3cccc([C@H]4CCCN4C(=O)c4ccc(-c5cc[nH]n5)cc4)c3)sc2C1",
    "CLASS ASSIGNMENT": "not satisfied"
  }
]

(Q) Say whether "CCCN[C@H]1CCc2nc(NC(=O)c3cccc([C@@H](C)NC(=O)c4ccc(OC)c(C)c4)c3)sc2C1" shows pIC50 of 8 or more.
(A) satisfied

(Q) Say whether CN1CCc2nc(NC(=O)c3cccc(C4CCCN(C(=O)Nc5cccc(C#N)c5)C4)c3)sc2C1 (centres unmarked) shows pIC50 of 8 or more.
(A) not satisfied

(Q) Say whether "Nc1nonc1-n1nnc(C(=O)N2CCC[C@@H]2c2cccc(C(=O)Nc3nc4c(s3)C[C@@H](N3CCOCC3)CC4)c2)c1-c1ccccc1" shows pIC50 of 8 or more.
(A) satisfied

(Q) Say whether "CN1CCc2nc(NC(=O)c3cccc([C@H]4CCCN4C(=O)Nc4ccc(C(N)=O)cc4)c3)sc2C1" shows pIC50 of 8 or more.
(A) satisfied

(Q) Say whether "CN1CCc2nc(NC(=O)c3cccc([C@H]4CCCN4C(=O)c4ccc5[nH]c(=O)ccc5c4)c3)sc2C1" shows pIC50 of 8 or more.
(A) not satisfied

====

Target: ROCKII (1-543) (Homo sapiens (Human), UniProt O75116)
Assay: IMAP Assay (fluorescence polarization, FAM S6 peptide)
Assay type: biochemical
Settings: 100 μM ATP, 200 nM FAM S6 peptide, 1 nM kinase; read-out: Assay 2 IC50
Sequence (O75116 1-543, species assumed): as the sequence (O75116 1-543) above
pIC50: −log10 of the molar value.
just bin them by pIC50: 0 (below 8), 1 (8 to below 9), 2 (9 or more)

Before answering, review these 6 worked examples.
[
  {
    "MOLECULE": "CN(C)[C@H]1CCc2nc(NC(=O)c3cccc([C@H]4CCCN4C(=O)c4ccc5[nH]c(=O)ccc5c4)c3)sc2C1",
    "CLASS ASSIGNMENT": 1
  },
  {
    "MOLECULE": "CCCN[C@H]1CCc2nc(NC(=O)c3cccc([C@@H](C)NC(=O)c4ccc(OC)c(C)c4)c3)sc2C1",
    "CLASS ASSIGNMENT": 2
  },
  {
    "MOLECULE": "CN(C)[C@H]1CCc2nc(NC(=O)c3cccc([C@H]4CCCN4C(=O)c4ccc5cc(O)ccc5c4)c3)sc2C1",
    "CLASS ASSIGNMENT": 1
  },
  {
    "MOLECULE": "COc1ccc(C(=O)N[C@H](C)c2cccc(C(=O)Nc3nc4c(s3)CN(C)CC4)c2)cc1C",
    "CLASS ASSIGNMENT": 0
  },
  {
    "MOLECULE": "CN1CCc2nc(NC(=O)c3cccc([C@H]4CCCN4C(=O)N4CCc5c(C#N)cccc54)c3)sc2C1",
    "CLASS ASSIGNMENT": 0
  },
  {
    "MOLECULE": "CN(C)[C@H]1CCc2nc(NC(=O)c3cccc([C@H]4CCCN4C(=O)c4ccc(-c5cnco5)cc4)c3)sc2C1",
    "CLASS ASSIGNMENT": 1
  }
]

(Q) Given "CN(C)[C@H]1CCc2nc(NC(=O)c3cccc([C@H]4CCCN4C(=O)c4csc(-c5ccncc5)n4)c3)sc2C1" , name the class its pIC50 places it in.
(A) 1

(Q) Given N#Cc1ccc(NC(=O)COc2cccc(C(=O)Nc3nc4c(s3)CC(N3CCN(C5CC5)CC3)CC4)c2)cc1 (stereo not drawn) , name the class its pIC50 places it in.
(A) 0

(Q) Given "CN1CCc2nc(NC(=O)c3cccc([C@H]4CCCN4C(=O)c4ccc(-c5ccncc5)cc4)c3)sc2C1" , name the class its pIC50 places it in.
(A) 1

(Q) Given "CN(C)[C@H]1CCc2nc(NC(=O)c3cccc([C@H]4CCCN4C(=O)c4ccc(-n5ccnc5)cc4)c3)sc2C1" , name the class its pIC50 places it in.
(A) 1

(Q) Given "CCCN[C@H]1CCc2nc(NC(=O)c3cccc([C@@H](C)NC(=O)c4ccc(OC)c(OC)c4)c3)sc2C1" , name the class its pIC50 places it in.
(A) 2

(Q) Given "N#Cc1cccc(NC(=O)N2CCC[C@@H]2c2cccc(C(=O)Nc3nc4c(s3)C[C@@H](N)CC4)c2)c1" , name the class its pIC50 places it in.
(A) 2

(Q) Given CN1CCN(C2CCc3nc(NC(=O)c4cccc(OCC(=O)Nc5ccc(C#N)cc5)c4)sc3C2)CC1 (stereo not drawn) , name the class its pIC50 places it in.
(A) 0

(Q) Given "N#Cc1cccc2c1CCN2C(=O)N1CCC[C@@H]1c1cccc(C(=O)Nc2nc3c(s2)C[C@@H](N2CCOCC2)CC3)c1" , name the class its pIC50 places it in.
(A) 1

(Q) Given "CN(C)[C@H]1CCc2nc(NC(=O)c3cccc([C@H]4CCCN4C(=O)c4ccc(-c5ccncc5)cc4)c3)sc2C1" , name the class its pIC50 places it in.
(A) 1

====

Biological target: ROCKII (1-543) (Homo sapiens (Human))
Assay: Luciferin-Luciferase Assay (PKLight ATP detection)
Type: biochemical
Details: 750 nM ATP, 500 nM peptide, 7.5 nM kinase
MEASURED METRIC: log10(IC50) (log10 of the value in nM)
Plainly stated, the numbers are log10 of IC50 given in nM.

[
  {
    "COMPOUND": "Cc1nc(-c2ccncc2)sc1C(=O)N1CCC[C@@H]1c1cccc(C(=O)Nc2nc3c(s2)C[C@@H](N2CCOCC2)CC3)c1 [Compound 128]",
    "EXPERIMENTAL VALUE": 0.56
  }
]

(Q) Would you mind telling me what log10(IC50) value was observed for N#Cc1ccc(NC(=O)COc2cccc(C(=O)Nc3nc4c(s3)C[C@@H](N)CC4)c2)cc1 [Compound 11] ?
(A) 0.57

(Q) Would you mind telling me what log10(IC50) value was observed for CN1CCc2nc(NC(=O)c3cccc(N4CCC[C@@H]4C(=O)Nc4ccc(C#N)cc4)c3)sc2C1 [Compound 5] ?
(A) 1.28

(Q) Would you mind telling me what log10(IC50) value was observed for O=C(Nc1nc2c(s1)C[C@@H](N1CCOCC1)CC2)c1cccc([C@H]2CCCN2C(=O)c2ccc(-c3ccncc3)cc2)c1 [Compound 132] ?
(A) 0.41

(Q) Would you mind telling me what log10(IC50) value was observed for CCCC[C@@H](NC(=O)Nc1cccc(C#N)c1)c1cccc(C(=O)Nc2nc3c(s2)CN(C)CC3)c1 [Compound 4] ?
(A) 1.35

(Q) Would you mind telling me what log10(IC50) value was observed for Cc1c(C(=O)N2CCC[C@@H]2c2cccc(C(=O)Nc3nc4c(s3)CN(C)CC4)c2)nnn1-c1nonc1N [Compound 30] ?
(A) 1.52

(Q) Would you mind telling me what log10(IC50) value was observed for CN1CCc2nc(NC(=O)c3cccc([C@H]4CCCN4C(=O)Nc4cccc(C#N)c4)c3)sc2C1 [Compound 101, trifluoroacetic acid] ?
(A) 0.49

====

Target: ROCKII (1-543) (Homo sapiens (Human), UniProt O75116)
Experiment: Luciferin-Luciferase Assay (PKLight ATP detection)
Assay type: biochemical
Conditions: 750 nM ATP, 500 nM peptide, 7.5 nM kinase
# reported IC50; entries follow

(Q) Would you mind telling me what IC50 value was observed for "N#Cc1cccc(NC(=O)N2CCC[C@@H]2c2cccc(C(=O)Nc3nc4c(s3)CN(Cc3ccccc3)CC4)c2)c1" ?
(A) 12.5 nM

(Q) Would you mind telling me what IC50 value was observed for CN1CCc2nc(NC(=O)c3cccc(C4CCCCN4C(=O)Nc4cccc(C#N)c4)c3)sc2C1 (stereo not shown) ?
(A) 39.3 nM

(Q) Would you mind telling me what IC50 value was observed for "C[C@@H](NC(=O)Nc1cccc(C#N)c1)c1cccc(C(=O)Nc2ccc3c(c2)CN(C)CC3)c1" ?
(A) 18.9 nM

(Q) Would you mind telling me what IC50 value was observed for "N#Cc1cccc(NC(=O)N2CCC[C@@H]2c2cccc(C(=O)Nc3nc4c(s3)C[C@@H](N)CC4)c2)c1" ?
(A) 1.7 nM

Values compiled from patent US9079880B2.
